Each recorded value in this set is attributed to PubChem BioAssay (NCI).

- Test system: MDA-MB-468 breast
- procedure.details: NCI-60 one-dose screen, 48 h (100 = growth as untreated, 0 = no growth, -100 = all killed)
- details: 10 µM unless noted
- Method: Growth inhibition of the MDA-MB-468 human Breast tumor cell line is measured as a screen for anti-cancer activity. Cells are grown in 96 well plates and exposed to the test compound for 48 hours. Compounds are tested at a single concentration, which is 10^-5 M for most compounds. The reported endpoint is percent growth (GI% or GIPRCNT), where numbers from 0 - 100% represent growth inhibition, and numbers from -100% - 0 represent cell death. […]
This is part of a sample that, as a whole, favours compounds with a hit. Of some 83,000 tested, about 20% had one in any assay. Activity calls are given as the source filed them. The calls were made as follows: active = growth percent below 10; inactive = the rest.
measurement.name: growth

Would you please look over these solved cases?
INSERT INTO measurements (compound, system_name, measurement_name, assay_result) VALUES
  ('COc1ccc(/C=C/C(=O)C(CC2CCC2)C(=O)/C=C/c2ccc(OC)c(OC)c2)cc1OC', 'MDA-MB-468 breast', 'growth', '-22.2% (active)'),
  ('CCOC(=O)c1cc(C#N)n2ccc3ccccc3c12', 'MDA-MB-468 breast', 'growth', '98.4% (inactive)'),
  ('c1ccc(CSc2nnc3c4c5c(sc4nc(-c4cccnc4)n23)CCCCCC5)cc1', 'MDA-MB-468 breast', 'growth', '0.132% (active)');

Give the measured growth of CCOc1ccc([C@H]2C(C(=O)c3ccc(Cl)cc3)C3(N[C@@H]2c2ccccc2)C(=O)Nc2ccc(Br)cc23)cc1 (stereo not given in full) .
-17.1% (active)

Then CC1(C)S(=O)(=O)OCCOS1(=O)=O ?
101% (inactive)

----------
- Test system: MDA-MB-468 breast
- procedure.details: NCI-60 one-dose screen, 48 h (100 = growth as untreated, 0 = no growth, -100 = all killed)
- details: 10 µM unless noted
This is part of a sample that, as a whole, favours compounds with a hit. Of some 83,000 tested, about 20% had one in any assay. Active and inactive are the calls of the source. How the source made its calls: active means growth percent below 10; inactive means the rest.
measurement.name: growth

Worked cases, growth given:
INSERT INTO results (compound, assay_result) VALUES
  ('CCCCCCCC/C=C/CCCCCCCC1=NC(C)(C)CN1CC(C)O (stereo unspecified)', '46.7% (inactive)'),
  ('O=C1CC(c2ccc(Cl)cc2)c2ncn(-c3cccc(Cl)c3)c2N1 (stereo unspecified)', '41.3% (inactive)'),
  ('Cc1ccc(C(=Nc2ccccc2)N=P(c2ccccc2)(c2ccccc2)c2ccccc2)cc1', '-83% (active)');

Reported growth for MDA-MB-468 breast, given O=C(Nc1ccccc1)c1sc(-c2cccc(C(F)(F)F)c2)cc1O ?
92.3% (inactive)

Could you do the same for COS(=O)(=O)CCN(CCOS(C)(=O)=O)S(C)(=O)=O , please?
104% (inactive)

Item: O=c1oc2c(cc1-c1ccccc1)c(=O)[nH]c1ccccc12
105% (inactive)

----------
- System: MDA-MB-468 breast
- procedure.details: NCI-60 one-dose screen, 48 h (100 = growth as untreated, 0 = no growth, -100 = all killed)
- details: 10 µM unless noted
This is part of a sample that, as a whole, favours compounds with a hit. Of some 83,000 tested, about 20% had one in any assay.
Binarize growth at 40%; below is yes, at or above is no.

Recorded results for 6 compounds are shown here.
INSERT INTO results (compound, system_name, class) VALUES
  ('C/C(=N\NC(=O)CSc1nc2ccccc2c(=O)n1CCc1ccc(S(N)(=O)=O)cc1)c1ccc(Br)cc1', 'MDA-MB-468 breast', 'no'),
  ('Clc1ccc(CCC(Cn2ccnc2)Sc2c(Cl)cccc2Cl)cc1 (centres undefined)', 'MDA-MB-468 breast', 'yes'),
  ('COC1C(OC(N)=O)C(O)C(Oc2ccc3c(O)c(NC(=O)c4ccc(O)c(CC=C(C)C)c4)c(=O)oc3c2C)OC1(C)C (centres undefined)', 'MDA-MB-468 breast', 'no'),
  ('C=CC(=O)Nc1cccc(Oc2nc(Nc3ccc(N4CCN(C)CC4)cc3)nc3ccsc23)c1', 'MDA-MB-468 breast', 'yes'),
  ('COc1cccc(C2(C)Nc3ccccc3-c3nc4ccccc4n32)c1 (centres undefined)', 'MDA-MB-468 breast', 'no'),
  ('O=C1C[C@H](Sc2nc(-c3ccc(F)cc3)cc(C(F)(F)F)n2)[C@H]2CO[C@@H]1O2', 'MDA-MB-468 breast', 'no');

Please check: growth for O=C(Nc1ccccc1)Nc1cccc(Oc2nnc(Cl)c3ccccc23)c1 , strictly under 40% or not?
yes

Another compound to look at: Cc1cc(C(c2ccccc2)c2ccccc2)ccc1NS(=O)(=O)c1ccccc1
no
